Test system: Escherichia coli TOP10
assay.info: shrunken log2 fold change of peptide-encoding DNA abundance (4.5 h post-induction vs induction); higher = less antimicrobial activity (less host growth inhibition)
settings: time post-induction: 4.5 h; library: site-saturation at positions 5, 18, 19, 20
Known shrunken log2 fold change of a selection of sequences
value.type: shrunken log2 fold change

polymer.sequence: RRIRVRPPRLPRPRPRPPCMPRP
value.type: shrunken log2 fold change
meas.value: -0.0452
//
polymer.sequence: RRIRVRPPRLPRPRPRPAYEPRP
value.type: shrunken log2 fold change
meas.value: 0.0112
//
polymer.sequence: RRIRKRPPRLPRPRPRPLHEPRP
value.type: shrunken log2 fold change
meas.value: 1.06
//
polymer.sequence: RRIRQRPPRLPRPRPRPQERPRP
value.type: shrunken log2 fold change
meas.value: -0.00247
//
polymer.sequence: RRIRCRPPRLPRPRPRPDRYPRP
value.type: shrunken log2 fold change
meas.value: 0.00956
//
polymer.sequence: RRIRFRPPRLPRPRPRPIMEPRP
value.type: shrunken log2 fold change
meas.value: -0.319
//
polymer.sequence: RRIRERPPRLPRPRPRPTYGPRP
value.type: shrunken log2 fold change
meas.value: 0.158
//
polymer.sequence: RRIRNRPPRLPRPRPRPYCSPRP
value.type: shrunken log2 fold change
meas.value: -0.0619
//
polymer.sequence: RRIRYRPPRLPRPRPRPSQPPRP
value.type: shrunken log2 fold change
meas.value: -0.0421
//
polymer.sequence: RRIRSRPPRLPRPRPRPIEQPRP
value.type: shrunken log2 fold change
meas.value: -0.0141
//
polymer.sequence: RRIRDRPPRLPRPRPRPDAEPRP
value.type: shrunken log2 fold change
meas.value: 1.23

====

Parameter: shrunken log2 fold change. Scope: all listed entries.
Tested on: Escherichia coli TOP10
assay.info: shrunken log2 fold change of peptide-encoding DNA abundance (4.5 h post-induction vs induction); higher = less antimicrobial activity (less host growth inhibition)
settings: time post-induction: 4.5 h; library: site-saturation at positions 5, 18, 19, 20
value.type: shrunken log2 fold change

polymer.sequence: RRIRERPPRLPRPRPRPVPIPRP
meas.value: 0.343
//
polymer.sequence: RRIRMRPPRLPRPRPRPCNQPRP
meas.value: -0.0399
//
polymer.sequence: RRIRLRPPRLPRPRPRPCTWPRP
meas.value: 0.0461
//
polymer.sequence: RRIRMRPPRLPRPRPRPLSSPRP
meas.value: -0.0576
//
polymer.sequence: RRIRHRPPRLPRPRPRPPHMPRP
meas.value: -0.115
//
polymer.sequence: RRIRNRPPRLPRPRPRPGDSPRP
meas.value: -0.0564
//
polymer.sequence: RRIRNRPPRLPRPRPRPMFVPRP
meas.value: 0.134
//
polymer.sequence: RRIRRRPPRLPRPRPRPIQFPRP
meas.value: 0.153
//
polymer.sequence: RRIRSRPPRLPRPRPRPQSVPRP
meas.value: -0.138
//
polymer.sequence: RRIRKRPPRLPRPRPRPSDGPRP
meas.value: 0.178
//
polymer.sequence: RRIRIRPPRLPRPRPRPSENPRP
meas.value: -0.356
//
polymer.sequence: RRIRVRPPRLPRPRPRPWDKPRP
meas.value: -0.0363
//
polymer.sequence: RRIRWRPPRLPRPRPRPDYSPRP
meas.value: -0.106
//
polymer.sequence: RRIRQRPPRLPRPRPRPLVWPRP
meas.value: 0.152
//
polymer.sequence: RRIRQRPPRLPRPRPRPSREPRP
meas.value: 0.111
//
polymer.sequence: RRIRNRPPRLPRPRPRPLSHPRP
meas.value: -0.596
//
polymer.sequence: RRIRCRPPRLPRPRPRPATKPRP
meas.value: 0.0383
//
polymer.sequence: RRIRNRPPRLPRPRPRPHVRPRP
meas.value: -0.12
//
polymer.sequence: RRIRARPPRLPRPRPRPSNIPRP
meas.value: -0.447
//
polymer.sequence: RRIRTRPPRLPRPRPRPKTFPRP
meas.value: -0.00423
//
polymer.sequence: RRIRHRPPRLPRPRPRPNEFPRP
meas.value: -0.00664
//
polymer.sequence: RRIRVRPPRLPRPRPRPAFTPRP
meas.value: -0.124
//
polymer.sequence: RRIRLRPPRLPRPRPRPAYIPRP
meas.value: -0.098
//
polymer.sequence: RRIRPRPPRLPRPRPRPMIRPRP
meas.value: 0.339
//
polymer.sequence: RRIRNRPPRLPRPRPRPGGSPRP
meas.value: 0.407
//
polymer.sequence: RRIRSRPPRLPRPRPRPQTTPRP
meas.value: -0.237
//
polymer.sequence: RRIRPRPPRLPRPRPRPNLAPRP
meas.value: 0.294
//
polymer.sequence: RRIRPRPPRLPRPRPRPMYVPRP
meas.value: -1.06
//
polymer.sequence: RRIRRRPPRLPRPRPRPADYPRP
meas.value: -0.0547
//
polymer.sequence: RRIRRRPPRLPRPRPRPDCEPRP
meas.value: 0.363
//
polymer.sequence: RRIRWRPPRLPRPRPRPHMQPRP
meas.value: -0.0363
//
polymer.sequence: RRIRWRPPRLPRPRPRPICHPRP
meas.value: -0.0597
//
polymer.sequence: RRIRNRPPRLPRPRPRPMDSPRP
meas.value: -0.0507
//
polymer.sequence: RRIRTRPPRLPRPRPRPMAAPRP
meas.value: 0.0975
//
polymer.sequence: RRIRMRPPRLPRPRPRPFMHPRP
meas.value: -0.647
//
polymer.sequence: RRIRARPPRLPRPRPRPIHAPRP
meas.value: 0.0915
//
polymer.sequence: RRIRLRPPRLPRPRPRPREDPRP
meas.value: 0.327
//
polymer.sequence: RRIRDRPPRLPRPRPRPSQHPRP
meas.value: -0.343
//
polymer.sequence: RRIRERPPRLPRPRPRPQQFPRP
meas.value: -0.0731
//
polymer.sequence: RRIRPRPPRLPRPRPRPDIHPRP
meas.value: -0.458
//
polymer.sequence: RRIRHRPPRLPRPRPRPAVYPRP
meas.value: -0.0534
//
polymer.sequence: RRIRFRPPRLPRPRPRPHDRPRP
meas.value: 0.0063
//
polymer.sequence: RRIRARPPRLPRPRPRPHWGPRP
meas.value: 0.119
//
polymer.sequence: RRIRSRPPRLPRPRPRPVGYPRP
meas.value: 0.093
//
polymer.sequence: RRIRERPPRLPRPRPRPCDLPRP
meas.value: -0.01
//
polymer.sequence: RRIRERPPRLPRPRPRPPQWPRP
meas.value: 0.0679
//
polymer.sequence: RRIRTRPPRLPRPRPRPQILPRP
meas.value: -0.105
//
polymer.sequence: RRIRMRPPRLPRPRPRPIEKPRP
meas.value: -0.00199
//
polymer.sequence: RRIRFRPPRLPRPRPRPYSYPRP
meas.value: -0.268
//
polymer.sequence: RRIRSRPPRLPRPRPRPFQMPRP
meas.value: 0.00561
//
polymer.sequence: RRIRYRPPRLPRPRPRPHSPPRP
meas.value: -0.0755
//
polymer.sequence: RRIRLRPPRLPRPRPRPGYHPRP
meas.value: -0.421
//
polymer.sequence: RRIRPRPPRLPRPRPRPSVMPRP
meas.value: -0.123
//
polymer.sequence: RRIRVRPPRLPRPRPRPPFIPRP
meas.value: -0.23
//
polymer.sequence: RRIRRRPPRLPRPRPRPDIHPRP
meas.value: -0.122

====

Tested on: Escherichia coli TOP10
assay.info: shrunken log2 fold change of peptide-encoding DNA abundance (4.5 h post-induction vs induction); higher = less antimicrobial activity (less host growth inhibition)
settings: time post-induction: 4.5 h; library: site-saturation at positions 5, 18, 19, 20
# thresholds on shrunken log2 fold change define classes: bottom bin (below -0.2), middle bin (-0.2 to below 0.007), top bin (0.007 or more)

polymer.sequence: RRIRDRPPRLPRPRPRPAMHPRP
assigned.class: top bin

polymer.sequence: RRIRIRPPRLPRPRPRPEHAPRP
assigned.class: middle bin

polymer.sequence: RRIRVRPPRLPRPRPRPYILPRP
assigned.class: bottom bin

polymer.sequence: RRIRKRPPRLPRPRPRPNFTPRP
assigned.class: top bin

polymer.sequence: RRIRQRPPRLPRPRPRPMITPRP
assigned.class: middle bin

polymer.sequence: RRIRPRPPRLPRPRPRPKKLPRP
assigned.class: middle bin

polymer.sequence: RRIRFRPPRLPRPRPRPYKRPRP
assigned.class: bottom bin

polymer.sequence: RRIRSRPPRLPRPRPRPGCTPRP
assigned.class: top bin

polymer.sequence: RRIRHRPPRLPRPRPRPHHRPRP
assigned.class: bottom bin

polymer.sequence: RRIRSRPPRLPRPRPRPEQHPRP
assigned.class: middle bin

polymer.sequence: RRIRDRPPRLPRPRPRPQSWPRP
assigned.class: middle bin

====

Test system: Escherichia coli TOP10;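 further: peptides expressed intracellularly from a pBAD plasmid library in pooled LB shake-flask culture, induced with 0.3% L-arabinose, DNA abundance read by NGS, three biological replicates, DESeq2 with apeglm shrinkage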
assay.info: shrunken log2 fold change of peptide-encoding DNA abundance (4.5 h post-induction vs induction); higher = less antimicrobial activity (less host growth inhibition)
settings: time post-induction: 4.5 h; library: site-saturation at positions 5, 18, 19, 20
Reported shrunken log2 fold change values follow for various sequences

polymer.sequence: RRIRCRPPRLPRPRPRPDGTPRP
shrunken log2 fold change: 0.105

polymer.sequence: RRIRYRPPRLPRPRPRPGKKPRP
shrunken log2 fold change: -0.00101

polymer.sequence: RRIRHRPPRLPRPRPRPHPYPRP
shrunken log2 fold change: -0.462

polymer.sequence: RRIRERPPRLPRPRPRPRPSPRP
shrunken log2 fold change: -0.093

polymer.sequence: RRIRIRPPRLPRPRPRPSVLPRP
shrunken log2 fold change: -0.189

polymer.sequence: RRIRCRPPRLPRPRPRPIDPPRP
shrunken log2 fold change: -0.18

polymer.sequence: RRIRGRPPRLPRPRPRPPGTPRP
shrunken log2 fold change: 0.982

polymer.sequence: RRIRLRPPRLPRPRPRPQIMPRP
shrunken log2 fold change: -0.444

polymer.sequence: RRIRLRPPRLPRPRPRPDLFPRP
shrunken log2 fold change: -0.000844

polymer.sequence: RRIRNRPPRLPRPRPRPLDEPRP
shrunken log2 fold change: 0.126

polymer.sequence: RRIRMRPPRLPRPRPRPPQRPRP
shrunken log2 fold change: 1.09

polymer.sequence: RRIRGRPPRLPRPRPRPEFKPRP
shrunken log2 fold change: 0.741

polymer.sequence: RRIRHRPPRLPRPRPRPARWPRP
shrunken log2 fold change: 0.386

polymer.sequence: RRIRIRPPRLPRPRPRPGIAPRP
shrunken log2 fold change: -0.184

polymer.sequence: RRIRARPPRLPRPRPRPDGIPRP
shrunken log2 fold change: 0.446

polymer.sequence: RRIRCRPPRLPRPRPRPEQEPRP
shrunken log2 fold change: -0.0332

polymer.sequence: RRIRKRPPRLPRPRPRPRPTPRP
shrunken log2 fold change: 1.04

polymer.sequence: RRIRHRPPRLPRPRPRPSQHPRP
shrunken log2 fold change: -0.411

polymer.sequence: RRIRYRPPRLPRPRPRPMDFPRP
shrunken log2 fold change: -0.205

polymer.sequence: RRIRNRPPRLPRPRPRPHTAPRP
shrunken log2 fold change: -0.158

polymer.sequence: RRIRLRPPRLPRPRPRPMEQPRP
shrunken log2 fold change: 0.168

polymer.sequence: RRIRPRPPRLPRPRPRPWGCPRP
shrunken log2 fold change: -0.0706

polymer.sequence: RRIRNRPPRLPRPRPRPYPWPRP
shrunken log2 fold change: -0.0963

polymer.sequence: RRIRMRPPRLPRPRPRPDPVPRP
shrunken log2 fold change: -0.0377

polymer.sequence: RRIRHRPPRLPRPRPRPSNAPRP
shrunken log2 fold change: -0.38

polymer.sequence: RRIRTRPPRLPRPRPRPRICPRP
shrunken log2 fold change: -0.201
